Reference source for all entries: ChEMBL document CHEMBL5058577

Each entry below lists one item and its recorded Population Mitochondria Different-Phenotype (%) value.
System: Fibroblast
Test: Multiplex assay against human fibroblast
Assay type: toxicity, cell-based
Conditions: 48 h, 10 µM, compound concentration 10 uM, replicate 1
Readout name: Population Mitochondria Different-Phenotype (%)

Mol smiles: COc1ccc2c(c1OCc1ccccc1)C[C@@H](C(=O)O)N(C(=O)C(c1ccccc1)c1ccccc1)C2
Reported: 5
--
Mol smiles: CC(F)(F)CN1CCOc2c(nn(-c3ccccc3Cl)c2-c2ccc(Cl)cc2)C1=O
Reported: 22
--
Mol smiles: COc1cc2nc(N3CCN(C(=O)COc4c(OC)cccc4C(C)C)CC3)nc(N)c2cc1OC.Cl.Cl
Reported: 10
--
Mol smiles: CCc1nn2c(C)cc(C)nc2c1Cc1ccc(-c2nnc(C3CCNCC3)o2)cc1
Reported: 16
--
Mol smiles: CC(C)(C)c1ccc(CSc2cnn(C(C)(C)C)c(=O)c2Cl)cc1
Reported: 8

====

Test system: Fibroblast
Experiment: Multiplex assay against human fibroblast
Type: toxicity, cell-based
Details: 24 h, 1 µM, compound concentration 1 uM, replicate 1
Quick rule for you: Population Healthy Nuclei (%) under 70% gets MET, anything else gets NOT MET.

Compound: O=C(O)CCC/C=C\CC1C(O)CC(O)C1/C=C/C(O)COc1cccc(Cl)c1 (stereo unspecified) [CLOPROSTENOL]
Group: MET

Compound: Cc1cc(O)c(-c2ccc([C@@H](C)CN(C)C)cc2)c2c1[nH]c(=O)c1sccc12
Group: MET

Compound: Cc1sc2c(c1C)C(c1ccc(Cl)cc1)=N[C@H](CC(=O)OC(C)(C)C)c1nnc(C)n1-2
Group: MET

Compound: CN1CCN(c2ccc(Nc3c4ccccc4nc4ccccc34)cc2)CC1.Cl.Cl.O
Group: MET

Compound: CN(C)C(=O)Cn1cc(-c2ccc(-c3nnc4ccccn34)cc2)cn1
Group: MET

Compound: COc1ccc2c(c1OCc1ccccc1)C[C@@H](C(=O)O)N(C(=O)C(c1ccccc1)c1ccccc1)C2 [OLODANRIGAN]
Group: MET

Compound: C[C@H](NC(=O)CNC(=O)c1cccc(Cl)c1)c1ccccc1
Group: MET

Compound: CN1CCC(C(=O)c2cccc(NC(=O)c3c(F)cc(F)cc3F)n2)CC1
Group: NOT MET

Compound: Cn1cc(C(=O)OCC2CCN(CCNS(C)(=O)=O)CC2)c2ccccc21
Group: NOT MET

Compound: COc1cc2nc(N3CCN(C(=O)COc4c(OC)cccc4C(C)C)CC3)nc(N)c2cc1OC.Cl.Cl
Group: MET

Compound: COc1cc2nc(N3CCN(C(=O)c4ccco4)CC3)nc(N)c2cc1OC.Cl [PRAZOSIN HYDROCHLORIDE]
Group: MET

Compound: Cc1cc(NC(=O)NCCN2CCC(O)(Cc3ccccc3)CC2)c2ccccc2n1 [PALOSURAN]
Group: NOT MET

Compound: CCCCCCNC(=O)Nc1ccc(S(=O)(=O)Nc2ccc(CCNC[C@H](O)COc3ccc(O)cc3)cc2)cc1 [L-755507]
Group: MET

Compound: COc1cc(C(=O)N2CC[C@@H](O)[C@@H](N)C2)cc2nc(-c3cc4ccccc4n3CC3CC3)n(C)c12.Cl
Group: MET

====

Tested on: U2OS
Assay: Multiplex assay against U2OS
Format: toxicity, cell-based
Conditions: human, 12 h, 1 µM, compound concentration 1 uM, replicate 1
Each entry below lists one item and its recorded Population Tubulin-Different-Phenotype (%) value.
Readout name: Population Tubulin-Different-Phenotype (%)

Molecule: CSc1nc(NC2CCCC2)c([N+](=O)[O-])c(NC2CCCC2)n1
Unit text: %
Reported: 1

Molecule: COc1cc2nc(N3CCN(C(=O)COc4c(OC)cccc4C(C)C)CC3)nc(N)c2cc1OC.Cl.Cl
Unit text: %
Reported: 6

Molecule: Cc1cc(=O)n(C)c2cc(N3C(=O)CC[C@H](NS(=O)(=O)CC(C)C)[C@H]3c3ccc(Cl)cc3)ccc12
Unit text: %
Reported: 1

Molecule: CN(C)C(=O)Cn1cc(-c2ccc(-c3nnc4ccccn34)cc2)cn1
Unit text: %
Reported: 3

Molecule: O=C(NCCNCC(O)COc1ccc(O)cc1)N1CCOCC1.O=C(NCCNCC(O)COc1ccc(O)cc1)N1CCOCC1.O=C(O)/C=C/C(=O)O (stereo not given) [XAMOTEROL FUMARATE]
Unit text: %
Reported: 2

====

Tested on: HEK-293T
Assay: Multiplex assay against HEK293T
Format: toxicity, cell-based
Settings: human, 48 h, 10 µM, compound concentration 10 uM, replicate 2

Molecule: C[C@H](NC(=O)CNC(=O)c1cccc(Cl)c1)c1ccccc1
Target under test: HEK-293T
Population Normal (%): 97

Molecule: CC(C)(C)c1ccc(CSc2cnn(C(C)(C)C)c(=O)c2Cl)cc1
Target under test: HEK-293T
Population Normal (%): 85

Molecule: CCc1nn2c(C)cc(C)nc2c1Cc1ccc(-c2nnc(C3CCNCC3)o2)cc1
Target under test: HEK-293T
Population Normal (%): 96

Molecule: O=c1nc2[nH]c3ccccc3nc-2c(=O)[nH]1
Target under test: HEK-293T
Population Normal (%): 95

Molecule: CN1CCC(C(=O)c2cccc(NC(=O)c3c(F)cc(F)cc3F)n2)CC1
Target under test: HEK-293T
Population Normal (%): 92

Molecule: COc1ccc2[nH]c(I)c(CCNC(C)=O)c2c1
Target under test: HEK-293T
Population Normal (%): 97

Molecule: O=C(Nc1cc(-c2ccccc2)nn1-c1ccccc1F)c1ccc([N+](=O)[O-])cc1
Target under test: HEK-293T
Population Normal (%): 96

Molecule: Cc1sc2c(c1C)C(c1ccc(Cl)cc1)=N[C@H](CC(=O)OC(C)(C)C)c1nnc(C)n1-2
Target under test: HEK-293T
Population Normal (%): 94

Molecule: Cc1cc(NC(=O)NCCN2CCC(O)(Cc3ccccc3)CC2)c2ccccc2n1
Target under test: HEK-293T
Population Normal (%): 95

Molecule: Cn1cc(C(=O)OCC2CCN(CCNS(C)(=O)=O)CC2)c2ccccc21
Target under test: HEK-293T
Population Normal (%): 95

Molecule: COc1cc2nc(N3CCN(C(=O)COc4c(OC)cccc4C(C)C)CC3)nc(N)c2cc1OC.Cl.Cl
Target under test: HEK-293T
Population Normal (%): 53

Molecule: O=C(NCCNCC(O)COc1ccc(O)cc1)N1CCOCC1.O=C(NCCNCC(O)COc1ccc(O)cc1)N1CCOCC1.O=C(O)/C=C/C(=O)O (centres undefined) [XAMOTEROL FUMARATE]
Target under test: HEK-293T
Population Normal (%): 97

Molecule: Cc1cc(O)c(-c2ccc([C@@H](C)CN(C)C)cc2)c2c1[nH]c(=O)c1sccc12
Target under test: HEK-293T
Population Normal (%): 65

Molecule: S=C(NCCCc1c[nH]cn1)NCCCN(Cc1ccc(Cl)c(Cl)c1)c1ccc(Br)cn1
Target under test: HEK-293T
Population Normal (%): 32

Molecule: OCCCNc1cc(-c2ccnc(Nc3cccc(Cl)c3)n2)ccn1
Target under test: HEK-293T
Population Normal (%): 43

Molecule: O=c1ccc2ccc(OCCCCN3CCN(c4cccc5sccc45)CC3)cc2[nH]1
Target under test: HEK-293T
Population Normal (%): 47

Molecule: CN(C)C(=O)Cn1cc(-c2ccc(-c3nnc4ccccn34)cc2)cn1
Target under test: HEK-293T
Population Normal (%): 97

Molecule: CCn1c(-c2nc3cc(C(=O)N4CCCC(N)C4)ccc3n2C)cc2ccccc21.Cl (centres undefined)
Target under test: HEK-293T
Population Normal (%): 91

Molecule: CN(C)C/C=C/C(=O)Nc1ccc(C(=O)N2CCCC(Nc3ncc(Cl)c(-c4c[nH]c5ccccc45)n3)C2)cc1 (centres undefined)
Target under test: HEK-293T
Population Normal (%): 41

====

Tested on: Fibroblast
Assay: Multiplex assay against human fibroblast
Format: toxicity, cell-based
Settings: 48 h, 10 µM, compound concentration 10 uM, replicate 1
Each entry below lists one item and its recorded Population Normal (%) value.

Compound: Cc1sc2c(c1C)C(c1ccc(Cl)cc1)=N[C@H](CC(=O)OC(C)(C)C)c1nnc(C)n1-2
Target under test: Fibroblast
Population Normal (%): 98

Compound: COc1ccc2c(c1OCc1ccccc1)C[C@@H](C(=O)O)N(C(=O)C(c1ccccc1)c1ccccc1)C2
Target under test: Fibroblast
Population Normal (%): 94

Compound: C=CCN1C[C@H](C(=O)N(CCCN(C)C)C(=O)NCC)C[C@@H]2c3cccc4[nH]cc(c34)C[C@H]21
Target under test: Fibroblast
Population Normal (%): 95

Compound: CN1CCN2c3ccccc3Cc3ccccc3C2C1.Cl (stereo not drawn) [MIANSERIN HYDROCHLORIDE]
Target under test: Fibroblast
Population Normal (%): 94

Compound: COc1ccc2[nH]c(I)c(CCNC(C)=O)c2c1
Target under test: Fibroblast
Population Normal (%): 92

Compound: COCCn1c(C)c(C)s/c1=N\C(=O)C1C(C)(C)C1(C)C
Target under test: Fibroblast
Population Normal (%): 92

Compound: CN1CCN(c2ccc(Nc3c4ccccc4nc4ccccc34)cc2)CC1.Cl.Cl.O
Target under test: Fibroblast
Population Normal (%): 54

Compound: COc1cc(C(=O)N2CC[C@@H](O)[C@@H](N)C2)cc2nc(-c3cc4ccccc4n3CC3CC3)n(C)c12.Cl
Target under test: Fibroblast
Population Normal (%): 91
